target.of.assay: aryl hydrocarbon receptor (AHR) (Homo sapiens, UniProt P35869)
method.summary: XRE-driven luciferase reporter assay, human HepG2
conditions: XRE luciferase EC50 (footnote a), Human HepG2; EC50 defined as concentration induced 50% of Emax of ITE
assay.metric: EC50 (nM)
Response body: numeric value in nM, unit text excluded.

Please state recorded EC50 (tested on aryl hydrocarbon receptor (AHR) (Homo sapiens, UniProt P35869)) of COC(=O)c1cccc(C(=O)c2c[nH]c3c2ccc2ccccc23)n1 [Compound 22]
14

Please state recorded EC50 (tested on aryl hydrocarbon receptor (AHR) (Homo sapiens, UniProt P35869)) of COc1cnc(C(=O)c2c[nH]c3ccccc23)cn1 [Compound 30]
8.1

Please state recorded EC50 (tested on aryl hydrocarbon receptor (AHR) (Homo sapiens, UniProt P35869)) of O=C(c1cccc(-c2ccccc2)n1)c1c[nH]c2ccccc12 [Compound 113]
12.1

----------
target.of.assay: UniProt:P35869
Sequence (P35869 11-848): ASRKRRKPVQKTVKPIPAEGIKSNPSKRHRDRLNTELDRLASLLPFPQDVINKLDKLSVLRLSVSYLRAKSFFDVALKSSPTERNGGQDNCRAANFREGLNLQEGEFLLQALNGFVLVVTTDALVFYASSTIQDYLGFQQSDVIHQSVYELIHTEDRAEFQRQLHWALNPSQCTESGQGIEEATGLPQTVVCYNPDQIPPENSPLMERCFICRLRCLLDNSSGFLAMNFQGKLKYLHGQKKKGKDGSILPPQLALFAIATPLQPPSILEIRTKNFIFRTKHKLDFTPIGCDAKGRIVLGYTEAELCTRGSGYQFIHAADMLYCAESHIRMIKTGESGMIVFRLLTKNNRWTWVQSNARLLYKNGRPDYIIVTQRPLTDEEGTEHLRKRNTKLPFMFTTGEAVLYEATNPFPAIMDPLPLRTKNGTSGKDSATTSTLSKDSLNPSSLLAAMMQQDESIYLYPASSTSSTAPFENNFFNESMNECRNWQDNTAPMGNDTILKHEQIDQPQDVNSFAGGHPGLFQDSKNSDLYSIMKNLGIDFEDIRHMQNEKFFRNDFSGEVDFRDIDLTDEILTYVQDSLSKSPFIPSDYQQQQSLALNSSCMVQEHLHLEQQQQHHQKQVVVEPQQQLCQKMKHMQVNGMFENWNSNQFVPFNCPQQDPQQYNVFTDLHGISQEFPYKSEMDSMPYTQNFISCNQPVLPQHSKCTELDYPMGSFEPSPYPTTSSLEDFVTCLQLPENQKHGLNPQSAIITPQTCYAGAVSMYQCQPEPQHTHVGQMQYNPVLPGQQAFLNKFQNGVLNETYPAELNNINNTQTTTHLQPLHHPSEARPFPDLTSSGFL
method.summary: XRE-driven luciferase reporter assay, human HepG2
conditions: Human HepG2; fold over vehicle
assay.metric: XRE luciferase Emax (fold)
Response body: numeric value in fold, unit text excluded.

What XRE luciferase Emax (fold) value was documented for this molecule, O=C(O)c1cccc(C(=O)c2c[nH]c3ccccc23)n1 [Compound 3] ?
47

What XRE luciferase Emax (fold) value was documented for this molecule, O=C(c1cccc(N2CCOCC2)n1)c1c[nH]c2ccccc12 [Compound 110] ?
59

What XRE luciferase Emax (fold) value was documented for this molecule, COC(=O)c1ccc(C(=O)c2c[nH]c3ccccc23)cn1 [Compound 23] ?
74

What XRE luciferase Emax (fold) value was documented for this molecule, COC(=O)c1cccc(C(=O)c2c[nH]c3c(Cl)cccc23)n1 [Compound 17] ?
68

What XRE luciferase Emax (fold) value was documented for this molecule, COC(=O)c1cccc(C(=O)c2c[nH]c3ccc(Br)cc23)n1 [Compound 20] ?
55

What XRE luciferase Emax (fold) value was documented for this molecule, CN(C)C(=O)c1cccc(C(=O)c2c[nH]c3ccccc23)n1 [Compound 4] ?
23

What XRE luciferase Emax (fold) value was documented for this molecule, COc1cccc(C(=O)c2c[nH]c3ccccc23)n1 [Compound 5] ?
48

What XRE luciferase Emax (fold) value was documented for this molecule, O=C(c1ccccn1)c1c[nH]c2ccccc12 [Compound 124, 1H-indol-3-yl(2-pyridyl)methanone] ?
20

What XRE luciferase Emax (fold) value was documented for this molecule, COC(=O)c1cccc(C(=O)c2c[nH]c3c4c(ccc23)CCC4)n1 [Compound 21] ?
53

What XRE luciferase Emax (fold) value was documented for this molecule, COc1cc(C(=O)c2c[nH]c3ccccc23)ccn1 [Compound 29] ?
65

What XRE luciferase Emax (fold) value was documented for this molecule, COC(=O)c1cccc(C(=O)c2n[nH]c3ccccc23)c1 [reference compound] ?
117

What XRE luciferase Emax (fold) value was documented for this molecule, N#Cc1cccc(C(=O)c2c[nH]c3ccccc23)n1 [Compound 108] ?
74

What XRE luciferase Emax (fold) value was documented for this molecule, COC(=O)c1cccc(C(=O)c2c[nH]c3ccc(Cl)cc23)n1 [Compound 15] ?
62

What XRE luciferase Emax (fold) value was documented for this molecule, O=C(OC1CCCCC1)c1cccc(C(=O)c2c[nH]c3ccccc23)n1 [Compound 2] ?
55

What XRE luciferase Emax (fold) value was documented for this molecule, COC(=O)c1cccc(C(=O)c2c[nH]c3ncccc23)n1 [Compound 18] ?
42

What XRE luciferase Emax (fold) value was documented for this molecule, CC(C)OC(=O)c1cccc(C(=O)c2c[nH]c3ccccc23)n1 [Compound 1] ?
37
